Assay: COS7 lysate on small-molecule microarray, probe aHis, 635 nm (AID 1123);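 note: z-score combines 667nm fluorescence intensity with signal-to-noise per printed compound spot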
Conditions: COS7 cell lysate, fluorescence, higher = more signal
Measured Endpoint: composite z-score
The reply should be a number, written without any unit.

Known results for compounds:
CCCCCCc1nc(C2CC2)cc2c1[Si](C(C)C)(C(C)C)O[C@H]2c1ccccc1
-0.724
COCCOC(=O)N1C(=O)[C@@]2(c3cc(C#Cc4ccc(OC)cc4)ccc31)[C@H](C(=O)Nc1nc3ccccc3s1)[C@H]1C(=O)O[C@H](c3ccccc3)[C@H](c3ccccc3)N1[C@@H]2c1ccc(O)cc1
1.91
CC(C)[Si](C#CCCCC#N)(O[C@H](c1ccccc1)c1cn([C@H](CO)Cc2ccccc2)nn1)C(C)C
0.605
CCOC(=O)C1=C[C@@H](c2ccccc2)N(S(=O)(=O)c2ccc(C)cc2)[C@H]1c1ccccc1Cl
1.66
CCC(CC)C(O)C1C=CC2C(=O)N(c3ccccc3)C(=O)C2N1Nc1ccc(C(C)C)cc1 (stereo not drawn)
2.24
CO[C@]12C=C(Br)[C@@H](C[C@@H]1c1cccc(C)c1)[C@@]1(CO1)C2=O
0.288
CN1C(=O)C2C=CC(C(O)c3ccc(F)cc3)N(Nc3ccccc3)C2C1=O (stereo not drawn)
1.64

Could you now look at the following compound, please?
// sample COC(=O)[C@@]1(Cc2ccccc2N=[N+]=[N-])N=C(c2ccc(OCCCO)cc2)O[C@H]1c1ccccc1N=[N+]=[N-] , its composite z-score was 1.44
